- Tested on: PBMC cells
- PROTOCOL TEXT: Cell mitosis assay
- Assay type: cell-based, human
I'd appreciate it if you could supply Mitosis Assay % inhibition in PBMC cells at 5 μg/mL values for the items below.
Give just the number in %; leave the unit off.

Task: Please look up its Mitosis Assay % inhibition in PBMC cells at 5 μg/mL: Cc1ccc(-n2nc(C(C)(C)C)cc2NC(=O)Nc2ccc(Oc3ccnc(Nc4ccc5[nH]nnc5c4)n3)c3ccccc23)cc1
Output: 41.2

Task: Field entry: Cc1cc(Nc2nccc(Oc3ccc(NC(=O)Nc4cc(C(C)(C)C)nn4-c4ccc(=O)n(CCN5CCOCC5)c4)c4ccccc34)n2)cc2cn[nH]c12
Output: 26.7

Task: Queued: CC(C)(C)c1cc(NC(=O)Nc2ccc(Oc3cc(Nc4ccc5[nH]ncc5c4)ncn3)c3ccccc23)n(-c2ccc(OCCN3CCOCC3)cc2)n1
Output: 62.4

Task: Try this molecule next: Cc1ccc(-n2nc(C(C)(C)C)cc2NC(=O)Nc2ccc(Oc3ccnc(Nc4ccc5[nH]ncc5c4)n3)c3ccccc23)cc1
Output: 52.7

Task: Same question for Cc1ccc(-n2nc(C(C)(C)C)cc2NC(=O)Nc2ccc(Oc3cc(Nc4ccc5[nH]ncc5c4)ncn3)c3ccccc23)cc1 please.
Output: 70.7

Task: Next: COc1ccc(-n2nc(C(C)(C)C)cc2NC(=O)Nc2ccc(Oc3ccnc(Nc4ccc5[nH]ncc5c4)n3)c3ccccc23)cc1
Output: 30.5

Task: Also need CC(C)(C)c1cc(NC(=O)Nc2ccc(Oc3ccnc(Nc4ccc5c(c4)NC(=O)C5)n3)c3ccccc23)n(-c2ccc(OCCN3CCOCC3)nc2)n1 , thanks.
Output: 15.4

Task: Entry CC(C)(C)c1cc(NC(=O)Nc2ccc(Oc3ccnc(Nc4ccc5[nH]ncc5c4)n3)c3ccccc23)n(-c2ccc(OCCN3CCOCC3)cc2)n1 please
Output: 58.6

Task: Now consider COc1ccc(-n2nc(C(C)C)cc2NC(=O)Nc2ccc(Oc3ccnc(Nc4cc(C)c5[nH]ncc5c4)n3)c3ccccc23)cc1 and answer again.
Output: 23.7
